- Tested target: HLA-A*68:01 (Homo sapiens, UniProt P04439, A269V/D185E/E176V/E277Q/E87N/F33Y/G231S/I121M/I166T/I218V/L180W/L300P/L318F/N151K/P208A/P217A/Q86R/R169H/T345S)
- Assay type: binding
- Condition label: percent relative the binding of positive control peptide […]; duplicated experiments; positive binder >40%
Endpoint name: Bind A*68:01 (%)
Numbers only, in %.

In the examples that follow, each entry is paired with its recorded Bind A*68:01.
// query Which value of Bind A*68:01 has been reported for `ILAAYHPQQ` in the records?
// result 0

// query Reported Bind A*68:01 for GT HSWEYWG : what is it?
// result 71

// query If you can, please state the reported Bind A*68:01 value of `AVKPTGSAA` .
// result 0

// query Which Bind A*68:01 value belongs to `GGHNAVFNF` ?
// result 0

// query # get_value(readout='Bind A*68:01', item= `SPAVYLLDG` )
// result 0

Please go through the list and note Bind A*68:01 for each sequence.
1. MGRDIKVQF
2. GSAAIGLSM
3. HSMSSTHEA [Rv0288_70–78m1]
4. ALLDPSQGM

// result
1. 10
2. 5
3. 0
4. 0

###

Exercise: state measured Bind B*58:01 for each of the sequences provided.
- Tested target: HLA-B*58:01 (Homo sapiens, UniProt P01889, A329T/C349S/D201E/D98Y/E176V/E187L/E204Q/E69T/G107R/I218V/I90N/K202T/L105A/L119I/N104I/N87E/Q89R/Q94S/R106L/R155S/R180L/R86G/S101N/S121R/S35A/S48A/T118I/V127L/V306I/V36M/Y140S/Y91M)
- Type: binding
- Condition label: percent relative the binding of positive control peptide […]; duplicated experiments; positive binder >40%
Numbers only, in %.

// query Entry AGCQTYKW E : reported Bind B*58:01 = ?
// result 121

// query Which Bind B*58:01 is reported for this sequence? `IPAEFLENF`
// result 0

Now consider a different sequence.
// query Data request, read-out Bind B*58:01, for `SALLDPSQG`
// result 8

###

- Tested target: HLA-A*30:02 (Homo sapiens, UniProt P04439, D101N/D140H/D185E/E176R/F33S/G80R/H175R/K168Q/Q94H/R138E/R41S/V100E)
- Format: binding
Endpoint name: Aff A*30:02 (ED50) (E -08 M)
Give bare numbers, in E -08 M.

// query Field request: Aff A*30:02 (ED50) | item: QT YKWETFL
// result 2

Give Aff A*30:02 (ED50) for each listed item.
1. PAVYLLDGL
2. CGKAGCQT Y
3. QWLSANRAV

// result
1. 9
2. 8
3. 7

###

- Tested target: HLA-A*02:01 (Homo sapiens, UniProt P04439, D140Y/D185E/D98H/E176V/E277Q/G131W/G231S/I119V/I121R/I166T/I218V/L300P/L318F/N151K/N90K/P208A/P217A/Q86G/Q94H/R138H/R169H/T345S)
- Assay type: binding
- Condition label: percent relative the binding of positive control peptide […]; plate-bound monomer 0.5 µg/ml; duplicated experiments; positive binder >40%
Endpoint name: Bind A*02:01 (%)
One number for each entry, in %.

The examples below pair each entry with its known result.
// query // returns reported Bind A*02:01 for input `CGNGTPNEL`
// result 20

// query Which value of Bind A*02:01 has been reported for `LLDGLRAQD` in the records?
// result 63

// query Name the recorded Bind A*02:01 for `AVYLLDGLR` .
// result 24

// query Need Bind A*02:01 of `QWLSANRAV` , thanks.
// result 21

// query Give its Bind A*02:01 value. Item: TMLDHAGDM [Rv0288_10–18m3]
// result 24

// query What value of Bind A*02:01 has been reported for the following substance? SQIMYNYPT [Rv0288_2–10m1]
// result 47

// query Item under review: `GSSAMILAA` . Reported Bind A*02:01?
// result 66

// query Endpoint output: Bind A*02:01 of NLGAEIAVE [Rv0288_27–35m1] . Value?
// result 29

List reported Bind A*02:01 for each of these substances:
1. YAGSLSALL
2. DW YSPACGK
3. PVGGQSSFY
4. MKGDLQSSL

// result
1: 66; 2: 10; 3: 0; 4: 16

Batch request: Bind A*02:01 per item, same order as input.
1. QT YKWETFL
2. ILAAYHPQQ
3. WVYCGNGTP
4. SGLSIVMPV

// result
[60, 57, 11, 95]

Go through the list and state Bind A*02:01 for each entry.
1. LSANRAVKP
2. SSFYSDWYS
3. TMLGHAGDM [Rv0288_10–18m1]
4. MAGSSAMIL
5. QNLGAEIAV [Rv0288_26–34m1]
6. FLENFVRSS
7. YSDWYSPAC
8. IYAGSLSAL

// result
1. 17
2. 53
3. 10
4. 54
5. 28
6. 77
7. 59
8. 44

###

- Tested target: HLA-A*30:01 (Homo sapiens, UniProt P04439, D140H/D185E/E176W/F33S/G80R/H175R/K168Q/R138E/R41S)
- Format: binding
- Condition label: percent relative the binding of positive control peptide […]; duplicated experiments; positive binder >40%
Consider the following substances; for each one, report its Bind A*30:01.
Give bare numbers, in %.

Worked cases, Bind A*30:01 given:
// query Fill in the blank: the reported Bind A*30:01 of `GTPNELGGA` is ____.
// result 0

// query What value of Bind A*30:01 has been reported for the following substance? `AAYHPQQFI`
// result 83

List the reported Bind A*30:01 of each substance below.
1. NFPPNGTHS
2. SSAMILAAY
3. GSAAIGLSM

// result
1: 11; 2: 0; 3: 0

Look at each substance and report its Bind A*30:01.
1. CGNGTPNEL
2. LSANRAVKP
3. MKGDLQSSL
4. LIGLAMGDA
5. PAVYLLDGL
6. YYQSGLSIV

// result
1. 0
2. 49
3. 14
4. 0
5. 0
6. 29

Below is a list of substances. For each, state its recorded Bind A*30:01.
1. CGKAGCQT Y
2. MGPSLIGLA
3. DAYNAAGGH
4. QQIPKLVAN
5. NGT HSWEYW
6. SGLSIVMPV
7. ANNTRLWVY
8. LVRAYHSMS [Rv0288_65–73m1]

// result
1. 28
2. 15
3. 8
4. 10
5. 0
6. 0
7. 19
8. 7

List the reported Bind A*30:01 of each substance below.
1. DPSQGMGPS
2. KLVANNT RL
3. DINTPAFEW

// result
1: 21; 2: 60; 3: 7

For every item below, please supply its Bind A*30:01.
1. FLTSELPQW
2. SMAGSSAMI
3. SLSALLDPS
4. VFNFPPNGT
5. AEFLENFVR
6. KPTGSAAIG
7. QSSFYSDWY

// result
1. 0
2. 0
3. 2
4. 3
5. 0
6. 0
7. 0

# map each substance to its Bind A*30:01
1. KFQDAYNAA
2. ACGKAGCQT
3. GGYKAADMW
4. QSGLSIVMP
5. GT HSWEYWG

// result
[0, 19, 0, 34, 0]

I need Bind A*30:01 for every entry listed below, if you could help.
1. NLKFQDAYN
2. QIMYNYPTM [Rv0288_3–11m1]
3. GLSIVMPVG
4. AYHPQQFIY
5. NAMKGDLQS
6. QQFIYAGSL

// result
[0, 12, 0, 6, 6, 0]

Count: 7. Required value per item: Bind A*30:01.
1. YLLDGLRAQ
2. LVANNT RLW
3. YWGAQLNAM
4. GMGPSLIGL
5. VQFQSGGNN
6. VMPVGGQSS
7. NAVFNFPPN

// result
0
2
0
16
0
0
0

###

- Tested target: HLA-A*68:01 (Homo sapiens, UniProt P04439, A269V/D185E/E176V/E277Q/E87N/F33Y/G231S/I121M/I166T/I218V/L180W/L300P/L318F/N151K/P208A/P217A/Q86R/R169H/T345S)
- Type: binding
- Condition label: percent relative the binding of positive control peptide KTGGPIYKR; duplicated experiments; positive binder >40%
Kindly supply the reported Bind A*68:01 values for the records listed here.
Answers are plain numbers, in %.

Worked examples follow.
// query # input sequence: AYQGVQQKW [Rv3875_50–58] ; wanted: its Bind A*68:01
// result 6

// query Please give the measured Bind A*68:01 for this sequence: LAAAWGGSG [Rv3875_39-47]
// result 10

// query Please report the recorded Bind A*68:01 for AGQAMASTE [Rv3875_79–87] .
// result 13

// query # query: Bind A*68:01 of entry LQNLARTIS [Rv3875_69–77]
// result 8

// query Recorded Bind A*68:01 of TATELNNAL [Rv3875_61–69] , please.
// result 13

// query Could you share which Bind A*68:01 value was measured for AAAWGGSGS [Rv3875_40-48] ?
// result 15

// query Suppose we examine the sequence SGSEAYQGV [Rv3875_46–54] ; what Bind A*68:01 value has been reported?
// result 0

// query What Bind A*68:01 value was documented for this sequence, DLVRAYHAM [Rv0288_64–72wt] ?
// result 34

With those in mind, consider the next sequence.
// query Find the recorded Bind A*68:01 belonging to AWGGSGSEA [Rv3875_42–50] and report it.
// result 11

Source listed as paper PMC3608651.
